B1: C8orf76 (parent)
chain: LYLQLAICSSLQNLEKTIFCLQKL

# Variants of: B1
# Measurement description: protein stability index of a GFP-peptide fusion (GPS, HEK-293T) (PSI 1-6); higher = more stable;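 also: lentivirally expressed fusions sorted by FACS into six bins by GFP to DsRed ratio, PSI derived from sequencing read proportions per bin multiplied by bin number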
# Test conditions: c terminus: a fixed tail appended
protein stability index values, listed per item
Measurement label: protein stability index

| Mutation label | Measurement label | Reported measurement |
| --- | --- | --- |
| Y2W | protein stability index | 3.02 |
| L14H | protein stability index | 2.93 |
| L5G | protein stability index | 3.09 |
